Overview of recorded furin cleavage Z-score for various sequences
- TEST TARGET: furin, P09958;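 also: purified furin at 1:10 enzyme:substrate in 50 mM HEPES pH 7.5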
- Sequence (P09958 whole entry): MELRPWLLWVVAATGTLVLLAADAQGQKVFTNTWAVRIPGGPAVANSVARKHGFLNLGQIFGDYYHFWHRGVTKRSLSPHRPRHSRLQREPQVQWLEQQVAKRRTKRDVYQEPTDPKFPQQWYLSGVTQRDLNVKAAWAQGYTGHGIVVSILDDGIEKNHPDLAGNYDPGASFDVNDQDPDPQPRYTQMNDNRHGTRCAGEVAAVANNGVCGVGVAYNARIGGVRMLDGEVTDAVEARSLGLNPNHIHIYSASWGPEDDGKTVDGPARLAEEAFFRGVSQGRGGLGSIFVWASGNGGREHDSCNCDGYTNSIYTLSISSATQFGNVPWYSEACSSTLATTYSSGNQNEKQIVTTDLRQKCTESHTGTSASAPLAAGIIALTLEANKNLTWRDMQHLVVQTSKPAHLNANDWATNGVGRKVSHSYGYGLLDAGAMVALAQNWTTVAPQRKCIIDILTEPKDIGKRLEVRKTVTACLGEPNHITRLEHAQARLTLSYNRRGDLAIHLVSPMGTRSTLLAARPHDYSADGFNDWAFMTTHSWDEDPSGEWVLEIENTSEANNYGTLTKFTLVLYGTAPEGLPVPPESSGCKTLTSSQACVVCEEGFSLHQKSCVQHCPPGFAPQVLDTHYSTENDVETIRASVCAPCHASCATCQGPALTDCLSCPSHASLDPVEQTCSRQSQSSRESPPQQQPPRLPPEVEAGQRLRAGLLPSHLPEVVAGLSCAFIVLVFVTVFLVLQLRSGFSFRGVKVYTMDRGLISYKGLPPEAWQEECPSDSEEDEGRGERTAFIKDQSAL
- METHOD DESCRIPTION: furin cleavage Z-score vs untreated control; higher = more cleavage, active = 3.5 or more, inactive = 1 or less, 8 variable residues between constant flanks
- CONDITIONS USED: 15 min
This is one part of the list. The true hit rate is not given.
PROPERTY: furin cleavage Z-score

>>> df
                      sequence             reading
0  CAGDDLVVICAGNASASA [HC1529]  -0.0771 (inactive)
1  CAPEFFTELDAGNASASA [HC1220]   -0.533 (inactive)
2  CAVVCCSMSNAGNASASA [HC2101]   0.0609 (inactive)
